The reported measurements were obtained from ChEMBL document CHEMBL1201862.

Target: UniProt:Q9UBT2
Assay: SUMOylation inhibitor hit validation, confirmation, SUMOylation inhibitor project, biochemical, AlphaScreen (AID 2018)
Type: functional
Activity calls are given as the source filed them. No stated cut-off is given here; in the data, actives have a measured IC50 and inactives only a lower limit.
Labels: class 1 (active), class 0 (inactive)

# compound, assaySystem, discreteLabel
measured = [
    ("Nc1c(C(=O)Nc2ccc(Br)cc2)sc2nc(-c3ccco3)ccc12", "UniProt:Q9UBT2", "class 1"),
    ("O=C1NC(=O)N(Cc2ccco2)C(=O)/C1=C/NNC(=O)c1ccccc1O", "UniProt:Q9UBT2", "class 1"),
    ("CC(=O)C1=C(C)OC2(O)c3ccccc3C(=O)C12O (stereo not given)", "UniProt:Q9UBT2", "class 1"),
    ("CC(NC(=O)OC(C)(C)C)C(=O)Oc1ccc2ccc(=O)oc2c1 (stereo not given)", "UniProt:Q9UBT2", "class 0"),
    ("Sc1nnc(-c2cccs2)n1/N=C/c1cn(-c2ccccc2)nc1-c1ccc(Cl)cc1", "UniProt:Q9UBT2", "class 1"),
]
